- TARGET_ENTITY: human δ opioid receptors (hDOR) (Homo sapiens)
- Construct: expressed in transfected cells; host or cells: HN9.10 neuroblastoma cell line, pCDNA3, neomycin-selected clones
- Sequence (P41143 whole entry): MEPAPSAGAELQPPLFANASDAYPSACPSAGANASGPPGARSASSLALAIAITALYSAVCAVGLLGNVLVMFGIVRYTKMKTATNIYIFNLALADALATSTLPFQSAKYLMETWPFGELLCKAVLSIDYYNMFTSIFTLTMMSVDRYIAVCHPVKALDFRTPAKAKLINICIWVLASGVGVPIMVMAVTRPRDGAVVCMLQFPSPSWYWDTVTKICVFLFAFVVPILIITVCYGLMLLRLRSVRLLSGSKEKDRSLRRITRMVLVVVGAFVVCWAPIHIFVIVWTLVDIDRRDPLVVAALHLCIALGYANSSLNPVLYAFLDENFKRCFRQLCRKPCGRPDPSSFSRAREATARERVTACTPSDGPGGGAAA
- MEASUREMENT_PROTOCOL: [35S]GTP-γ-S binding assay, hDOR
- Format: biochemical
- COND: read-out: GTP binding hDOR Emax (%)
// Emax lookup, one value per entry
Give a bare numeral; the unit % is implied.

CCCC[C@H](NC(=O)[C@H](Cc1ccccc1)NC(=O)CNC(=O)[C@@H](C)NC(=O)[C@@H](N)Cc1ccc(O)cc1)C(=O)N1CCC[C@H]1C(=O)NC(COC1OC(CO)C(O)C(O)C1O)C(=O)N[C@@H](Cc1c[nH]c2ccccc12)C(=O)NCc1cc(C(F)(F)F)cc(C(F)(F)F)c1 (stereo partly shown)
62
CSCC[C@H](NC(=O)[C@H](Cc1ccccc1)NC(=O)CNC(=O)[C@@H](C)NC(=O)[C@@H](N)Cc1ccc(O)cc1)C(=O)N1CCC[C@H]1C(=O)N[C@@H](CC(C)C)C(=O)N[C@@H](Cc1c[nH]c2ccccc12)C(=O)OCc1cc(C(F)(F)F)cc(C(F)(F)F)c1
47.6
CC(C)C[C@H](NC(=O)[C@@H]1CCCN1C(=O)[C@H](Cc1ccccc1)NC(=O)[C@H](Cc1ccccc1)NC(=O)CNC(=O)[C@@H](C)NC(=O)[C@@H](N)Cc1ccc(O)cc1)C(=O)N[C@@H](Cc1c[nH]c2ccccc12)C(=O)OCc1cc(C(F)(F)F)cc(C(F)(F)F)c1
39

Here is the next item to consider.
Query: What value of measured Emax is listed for CCCC[C@@H](C(=O)N1CCC[C@H]1C(=O)N[C@@H](CC(C)C)C(=O)N[C@@H](Cc1c[nH]c2ccccc12)C(=O)OCc1cc(C(F)(F)F)cc(C(F)(F)F)c1)N(C)C(=O)[C@H](Cc1ccccc1)NC(=O)CNC(=O)[C@@H](C)NC(=O)[C@@H](N)Cc1ccc(O)cc1 ?
Response: 283

---

Peptide text beside a SMILES is read from it.
The following molecules each carry a recorded pIC50 for rat μ opioid receptors (rMOR) (Rattus norvegicus, UniProt P33535).
Note: pIC50 values are expressed as the negative base-10 logarithm of concentration in M.

Study these solved cases before continuing.
CCCC[C@@H]1NC(=O)[C@H](Cc2ccccc2)NC(=O)CNC(=O)[C@H](NC(=O)[C@@H](N)Cc2ccc(O)cc2)CSSC[C@H](C(=O)N[C@@H](Cc2c[nH]c3ccccc23)C(=O)NCc2cc(C(F)(F)F)cc(C(F)(F)F)c2)NC(=O)[C@@H]2CCCN2C1=O [TY038, [D-Cys^2, D-Cys^7]TY027] (HELM PEPTIDE1{Y.[dC].G.F.[Nle].P.[dC].W.[FC(F)(F)c1cc(CN[*:1])cc(C(F)(F)F)c1]}$PEPTIDE1,PEPTIDE1,2:R3-7:R3$$$V2.0; N-terminus assumed)
8.80
CC(C)C[C@H](NC(=O)[C@@H]1CCCN1C(=O)[C@H]1CSSC[C@@H](NC(=O)[C@@H](N)Cc2ccc(O)cc2)C(=O)NCC(=O)N[C@@H](Cc2ccccc2)C(=O)N1)C(=O)N[C@@H](Cc1c[nH]c2ccccc12)C(=O)NCc1cc(C(F)(F)F)cc(C(F)(F)F)c1 [TY037, [D-Cys^2, D-Cys^5]TY027]
6.90
CC(C)C[C@H](NC(=O)[C@@H]1CCCN1C(=O)[C@@H]1CSSC[C@@H](NC(=O)[C@@H](N)Cc2ccc(O)cc2)C(=O)NCC(=O)N[C@@H](Cc2ccccc2)C(=O)N1)C(=O)N[C@@H](Cc1c[nH]c2ccccc12)C(=O)NCc1cc(C(F)(F)F)cc(C(F)(F)F)c1
6.40

Query: What value of measured pIC50 is listed for CCCC[C@@H]1NC(=O)[C@H](Cc2ccccc2)NC(=O)CNC(=O)[C@H](NC(=O)[C@@H](N)Cc2ccc(O)cc2)CSSC[C@@H](C(=O)N[C@@H](Cc2c[nH]c3ccccc23)C(=O)NCc2cc(C(F)(F)F)cc(C(F)(F)F)c2)NC(=O)[C@@H]2CCCN2C1=O [TY035, [D-Cys^2, Cys^7]TY027] (HELM PEPTIDE1{Y.[dC].G.F.[Nle].P.C.W.[FC(F)(F)c1cc(CN[*:1])cc(C(F)(F)F)c1]}$PEPTIDE1,PEPTIDE1,2:R3-7:R3$$$V2.0; N-terminus assumed) ?
Response: 6.80
